Target: UniProt O75469
Sequence (O75469 whole entry): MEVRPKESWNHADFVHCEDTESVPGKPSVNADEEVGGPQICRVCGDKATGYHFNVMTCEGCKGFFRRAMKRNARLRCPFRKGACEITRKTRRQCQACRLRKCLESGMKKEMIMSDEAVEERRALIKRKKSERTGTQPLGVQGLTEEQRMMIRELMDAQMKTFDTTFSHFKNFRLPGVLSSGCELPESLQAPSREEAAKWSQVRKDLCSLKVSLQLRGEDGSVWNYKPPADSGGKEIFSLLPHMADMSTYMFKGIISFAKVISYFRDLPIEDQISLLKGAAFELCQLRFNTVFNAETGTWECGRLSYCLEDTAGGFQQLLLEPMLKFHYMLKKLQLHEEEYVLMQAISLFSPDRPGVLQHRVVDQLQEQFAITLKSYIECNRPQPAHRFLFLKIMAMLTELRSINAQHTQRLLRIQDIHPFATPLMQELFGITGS
Published IC50 for UniProt O75469, assembled from different documents, is shown next.
ASSAY ENDPOINT: IC50 (µM)

[A] CCCC(O)(c1ccc(N(CC(F)(F)F)S(=O)(=O)c2ccccc2)cc1)C(F)(F)F (configuration not stated)
[B] O=C(C1CCc2ccccc2CC1)N1Cc2cccnc2Nc2ccc(N3CCOCC3)cc21
[C] Fc1ccc(-c2c3cccc(C(F)(F)F)c3nn2Cc2ccc(F)cc2Cl)cc1
# rank by IC50, ascending (min first) Write the labels out in the order the request specifies.
A, C, B
(A: 0.316 µM, C: 1.77 µM, B: 3.2 µM)
